- assay.explanation: in vitro
- condition.description: human, hela cells, % viability
experimental.readout: viability at 28.5 h, 10 µM (%)

- molecule: "CCN1C(=O)CC(N2CCN(c3cc(-c4ccc(OC)cc4)nc(C)n3)CC2)C1=O (stereo not shown) [CBK269744]"
  endpoint.value: 106
- molecule: "CC(C)(C)NC(=O)Cn1cnc2c(cnn2-c2ccccc2)c1=O [CBK269586]"
  endpoint.value: 91.6
- molecule: "CN(C)CC(=O)NC(Cc1cccs1)c1nccs1 (stereo not shown) [CBK285061]"
  endpoint.value: 91.1
- molecule: "Cc1cc(Cl)cc(Cl)c1S(=O)(=O)Nc1nc(CC(=O)O)cs1 [CBK000573]"
  endpoint.value: 92
- molecule: "COCC1CCCN(S(=O)(=O)c2cnc3ccsc3c2)C1 (stereo not shown) [CBK306397]"
  endpoint.value: 66.6
- molecule: "CNC(=O)CN(CCO)Cc1cc(Br)ccc1F [CBK304941]"
  endpoint.value: 108
- molecule: "CS(=O)(=O)c1cccc(-c2cnc(NCCOc3ccccc3)c(C(=O)NCCc3ccccc3)c2)c1 [CBK076201]"
  endpoint.value: 96.5
